- assay.procedure: basal 3T3-L1 adipocyte mitochondrial potential changes, profiling panel, cell-based, JC-1 fluorescence, 3T3-L1 adipocytes, 24 h, 100 nL compound (AID 1168); note: test concentration not given here
- setup.conditions: JC-1 mitochondrial fluorescence, higher = more signal, called active from +8 up or from −8 down
Calls of active or inactive are those of the source.

compound	z-score
O=C1OCCC=C[C@H]2OC34C=CCN(CCN5CCOCC5)C(=O)[C@H]3N(CCCO)C(=O)[C@@H]4C12 (stereo partly specified)	1.33 (inactive)
O=C1O[C@H](c2ccccc2)[C@H](c2ccccc2)N2[C@H]1[C@@H](C(=O)N1CCN(c3ncccn3)CC1)[C@]1(C(=O)Nc3ccccc31)[C@H]2c1ccc(O)cc1	1.04 (inactive)
CC(C)[Si](C#CCCCC#N)(O[C@H](c1ccccc1)c1cn([C@H](C)c2ccccc2)nn1)C(C)C	-0.289 (inactive)
CC(=O)c1ccc(C(O)C2C=CC3C(=O)NC(=O)C3N2Nc2ccc(Cl)cc2Cl)cc1 (stereo unspecified)	-1.4 (inactive)
CCCCN1CC=CC23O[C@@H]4/C=C\CCC(C)OC(=O)C4[C@H]2C(=O)N(C(C)CO)[C@@H]3C1=O (stereo partly specified)	-0.382 (inactive)
COCCOC(=O)N1C(=O)[C@@]2(c3cc(C#CC4(O)CCCCCC4)ccc31)[C@H](c1ccc(OCCO)cc1)N1[C@H](c3ccccc3)[C@H](c3ccccc3)OC(=O)[C@H]1[C@@H]2C(N)=O	-0.408 (inactive)
CCOC(=O)C[C@H]1[C@H](OC(=O)c2ccc(-c3ccccc3)cc2)[C@@H](NC(=O)CC(C)C)c2cc(OCCCO)ccc2N1C(=O)Cc1ccc(OC)cc1	-1.43 (inactive)
C=C(C(=O)CC[C@@H](OC(C)=O)c1cccc(OCCO)c1)C(C)C	0.216 (inactive)
N#Cc1ccc(C(O)C2C=CC3C(=O)N(c4ccccc4)C(=O)C3N2Nc2ccc([N+](=O)[O-])cc2)cc1 (stereo unspecified)	-1.78 (inactive)
COc1cc2c(cc1O)C(C1CC1)N(Cc1ccc([N+](=O)[O-])o1)CC2 (stereo unspecified)	-0.0836 (inactive)
CC1(C)OC[C@@]23C=C(Br)[C@@H](C[C@H]12)[C@@]1(CO1)C3=O	0.228 (inactive)
CN1C=C(C(=O)OCCS(C)(=O)=O)C(C(=O)OCCS(C)(=O)=O)=CC(CCCO)=CC1c1ccc(CN2CCCC2)cc1 (stereo unspecified)	-0.469 (inactive)
C=C(CC1([C@@H](NP(=O)(c2ccccc2)c2ccccc2)[C@H]2C[C@@H]2CCN(C(=O)OCC)S(=O)(=O)c2ccc(C)cc2)CC1)c1ccccc1	-1.47 (inactive)
CN(C)CCCC[C@@H]1NC(=O)[C@H]2C[C@@H](C(=O)O)[C@@H](c3cccc(OCCO)c3)N2C1=O	-0.829 (inactive)
COc1ccccc1CN1C(=O)c2ccccc2[C@@H](C(=O)NCCCN(C)C)[C@@H]1c1ccc(CO)cc1	0.629 (inactive)
C[C@]1(C(=O)NCC(F)(F)F)c2ccccc2C(=O)N(Cc2ccc(OC(F)(F)F)cc2)[C@H]1c1ccc(CO)cc1	-0.235 (inactive)
CC(C)CNC(=O)[C@@H]1c2ccccc2C(=O)N(Cc2ccccc2Cl)[C@H]1c1ccc(CO)cc1	-0.0284 (inactive)
CC(C)CNC(=O)[C@@H]1c2ccccc2C(=O)N(C2Cc3ccccc3C2)[C@H]1c1ccc(CO)cc1	0.228 (inactive)
CCCC[C@@H](O)C1=C(COC)Cn2c(=O)n(-c3ccccc3)c(=O)n2[C@H]1CO	-0.301 (inactive)
O=C1C2C=CC(C(O)C(c3ccccc3)c3ccccc3)N(Nc3ccccc3)C2C(=O)N1c1ccccc1 (stereo unspecified)	-1.64 (inactive)
COC(=O)[C@@]1(CCS(=O)(=O)c2ccccc2)N=C(c2ccc(OCCCO)cc2)O[C@H]1c1ccccc1N=[N+]=[N-]	-0.852 (inactive)
CC(C)(C)OC(=O)CC[C@]1(C(N)=O)N=C(c2ccc(OCCCO)cc2)O[C@H]1c1ccccc1CN=[N+]=[N-]	0.352 (inactive)
CN1C(=O)C2C=CC(C(O)c3ccc(-c4ccccc4)s3)N(Nc3ccccc3)C2C1=O (stereo unspecified)	-0.896 (inactive)
COCCOC(=O)N1C(=O)[C@@]2(c3ccccc31)[C@H](c1ccc(OCCO)cc1)N1[C@H](c3ccccc3)[C@H](c3ccccc3)OC(=O)[C@H]1[C@@H]2C(=O)N1CCN(c2ncccn2)CC1	0.358 (inactive)
COCCOC(=O)N1C(=O)[C@@]2(c3cc(C#Cc4ccc(OC)cc4)ccc31)[C@H](C(=O)Nc1nc3ccccc3s1)[C@H]1C(=O)O[C@H](c3ccccc3)[C@H](c3ccccc3)N1[C@@H]2c1ccccc1OCCO	3.66 (inactive)
C/C=C/CN(C(=O)C#Cc1ccccc1)[C@H](CO[Si](C)(C)C(C)(C)C)c1ccccc1	1.37 (inactive)
Cc1ccc(F)cc1S(=O)(=O)N[C@@H]1CCN(Cc2ccc3[nH]ccc3c2)C1	-0.261 (inactive)
N#Cc1ccc(C(O)C2C=CC3C(=O)NC(=O)C3N2Nc2ccccn2)cc1 (stereo unspecified)	-0.277 (inactive)
CC(C)N1CC=CC23O[C@@H]4C=CCCOC(=O)C4[C@H]2C(=O)N(CCCCCO)[C@@H]3C1=O (stereo partly specified)	1.19 (inactive)
C#CCN([C@H](/C=C/C1CC1)[C@@H](O)Cc1ccccc1)[C@@H](Cc1ccccc1)C(=O)OC	0.292 (inactive)
CC1CC/C=C\[C@H]2OC34C=CCN(CCN5CCOCC5)C(=O)[C@H]3N(CCCCCCO)C(=O)[C@@H]4C2C(=O)O1 (stereo partly specified)	-0.44 (inactive)

====

- assay.procedure: HepG2 cell viability effects, profiling panel, calcein-AM fluorescence, 48 h, basal (AID 1164); note: test concentration not given here
- setup.conditions: higher = more signal
z-score below -0.2 gives criterion not met; z-score at or above it gives criterion met.

compound	cat
CCCCN1CC=CC23O[C@@H]4C=CCOC(=O)[C@@H]4[C@H]2C(=O)N(C(CO)C(C)C)[C@@H]3C1=O (stereo partly drawn)	criterion not met
CC(C)C(=C=CC[C@@H](O)c1cccc(OCCO)c1)CCO	criterion met
O=c1cccc(-c2ccccc2C(F)(F)F)o1	criterion met
CCOC(=O)C[C@H]1[C@H](OC(=O)c2cc3ccccc3oc2=O)[C@@H](NC(=O)C2CCCCC2)c2cc(OCCCO)ccc2N1C(=O)Cc1ccc(OC)cc1	criterion met
Cc1ccccc1C(O)C1C=CC2C(=O)N(c3ccccc3)C(=O)C2N1Nc1ccccc1F (stereo not drawn)	criterion met
C=CC[C@@]1(C(=O)N(C)C)N=C(c2ccc(OCCCO)cc2)O[C@@H]1c1ccccc1	criterion not met
COc1ccc(CCNC(=O)[C@@]2(C)c3ccccc3C(=O)N(Cc3cc(C(F)(F)F)cc(C(F)(F)F)c3)[C@H]2c2ccc(CO)cc2)cc1	criterion not met
CCCC[C@@H]1C[C@H]1[C@@H](NC(=O)Cc1ccccc1)c1ccc(Cl)cc1	criterion not met

====

- assay.procedure: anti-His antibody binders, primary screen, artefact control for SMM control protein annotation, biochemical, small-molecule microarray, 635 nm fluorescence (AID 1128);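 note: score merges feature fluorescence with signal-to-noise for each printed compound spot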
- setup.conditions: anti-His Alexa647 antibody binding, higher = more signal
Recorded composite z-score values for a group of compounds are listed next.

compound	composite z-score
COCCOC(=O)N1C(=O)[C@@]2(c3cc(C#Cc4ccc(OC)cc4)ccc31)[C@H](C(=O)Nc1nc3ccccc3s1)[C@H]1C(=O)O[C@H](c3ccccc3)[C@H](c3ccccc3)N1[C@@H]2c1ccccc1OCCO	0.484
COC(=O)Cn1c(C(=O)N(C)C)cc2c1C[C@H]1CN(C(=O)c3ccccc3)[C@@](Cc3ccc(OC)cc3)(C(=O)OC)[C@@H]21	0.817
CCOC(=O)C1=CCC(c2cc3ccccc3[nH]2)N(S(=O)(=O)c2ccccc2[N+](=O)[O-])C1 (centres undefined)	0.584
CCc1cccc(NC(=O)O[C@H]2[C@H](OC(=O)Nc3ccc4c(c3)OCO4)[C@H](OC(=O)Nc3ccc4c(c3)OCO4)[C@@H](OC)O[C@@H]2CO)c1	2.14
[N-]=[N+]=NCc1ccccc1C[C@@]1(C(=O)O)N=C(c2ccc(OCCCO)cc2)O[C@@H]1c1ccccc1CN=[N+]=[N-]	0.705
C=C(CCCC)/C(=C/C[C@H](OC(C)=O)c1cccc(OCCO)c1)c1cc(C(=O)OC)ccc1OC	-0.799
C=CCN1C(=O)[C@]2(O[C@H](CCO)[C@@H]([Si](C)(C)c3ccc(OC)cc3)[C@@H]2C)c2ccccc21	0.0171
O=C1C2C=CC(C(O)c3ccc([N+](=O)[O-])cc3)N(Nc3ccccc3)C2C(=O)N1c1ccccc1 (centres undefined)	0.175
CCCC[C@@H]1C[C@H]1[C@@H](NC(=O)Cc1ccccc1)c1ccc(Cl)cc1	1.84
C=CCC(OC(C)=O)[C@@H]1[C@@H](N(Cc2cc3ccccc3o2)C(=O)c2ccc(-c3ccccc3)cc2)c2cc(OCCCO)ccc2N1C(=O)c1ccc2ccccc2n1 (some centres undefined)	-0.492
CO[C@H]1O[C@H](CO)[C@@H](OC(=O)Nc2ccc(C(F)(F)F)cc2)[C@H](OC(=O)Nc2ccccc2-c2ccccc2)[C@H]1OC(=O)Nc1ccccc1-c1ccccc1	1.7
COC(=O)C1=CC(CCCO)=CC(c2ccc(CN3CCCC3)cc2)N(Cc2sc3ccccc3c2Cl)C=C1C(=O)OC (centres undefined)	3.17
COCCOC(=O)N1C(=O)[C@@]2(c3cc(C#CCCO)ccc31)[C@H](C(=O)N1CCc3cc(OC)c(OC)cc3C1)[C@H]1C(=O)O[C@H](c3ccccc3)[C@H](c3ccccc3)N1[C@@H]2c1ccccc1OCCO	0.362
COC(=O)[C@@]1(CCS(=O)(=O)c2ccccc2)N=C(c2ccc(OCCCO)cc2)O[C@H]1c1ccccc1N=[N+]=[N-]	1.65
